- study system: 5-HT2A (Homo sapiens, UniProt P28223)
- test protocol: Radioligand binding, 5-HT2A
Cut-off 100 nM on Ki: below means Criterion met, at or above means Criterion not met.

{"compound": "Cc1nc2cc(OCCCCN3CCN(c4cccc(Cl)c4Cl)CC3)ccc2s1 [Compound 1]", "label value": "Criterion not met"}
{"compound": "Cc1ccc2cccc(N3CCN(CCCCOc4ccc5sc(C(C)C)nc5c4)CC3)c2n1 [Compound 49]", "label value": "Criterion not met"}
{"compound": "CC(C)c1nc2cc(OCCCCN3CCN(c4cccc5c4OCCO5)CC3)ccc2s1 [Compound 53]", "label value": "Criterion met"}
{"compound": "CNc1nc2cc(OCCCCN3CCC(c4cccc(Cl)c4Cl)CC3)ccc2s1 [Compound 54]", "label value": "Criterion met"}

I wonder whether CCc1nc2cc(OCCCCN3CCC(c4cccc(Cl)c4Cl)CC3)ccc2s1 [Compound 46] has Ki below 100 nM. Can you tell? Criterion not met

###

- study system: UniProtKB P35462
- Sequence (P35462 whole entry): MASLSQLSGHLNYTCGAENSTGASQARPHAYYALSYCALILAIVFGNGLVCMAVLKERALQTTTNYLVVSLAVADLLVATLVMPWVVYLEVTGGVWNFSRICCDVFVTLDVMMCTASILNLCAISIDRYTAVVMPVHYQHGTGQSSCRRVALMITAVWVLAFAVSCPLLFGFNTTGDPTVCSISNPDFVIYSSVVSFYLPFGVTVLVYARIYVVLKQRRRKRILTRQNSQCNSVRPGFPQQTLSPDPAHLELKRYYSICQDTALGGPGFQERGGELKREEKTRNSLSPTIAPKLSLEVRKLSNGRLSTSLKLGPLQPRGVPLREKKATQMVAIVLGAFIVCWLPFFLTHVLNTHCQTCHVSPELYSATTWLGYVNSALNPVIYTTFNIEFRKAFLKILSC
- test protocol: Radioligand binding, D3R
- particulars: read-out: Binding affinity Ki (nM), D3R; radioligand binding
attribute measured: Ki

Field request: Ki | item: CNc1nc2cc(OCCCCN3CCN(c4cccc(Cl)c4Cl)CC3)ccc2s1 35 nM

###

- study system: D2L receptors (Homo sapiens, UniProt P14416)
- Sequence (P14416 whole entry): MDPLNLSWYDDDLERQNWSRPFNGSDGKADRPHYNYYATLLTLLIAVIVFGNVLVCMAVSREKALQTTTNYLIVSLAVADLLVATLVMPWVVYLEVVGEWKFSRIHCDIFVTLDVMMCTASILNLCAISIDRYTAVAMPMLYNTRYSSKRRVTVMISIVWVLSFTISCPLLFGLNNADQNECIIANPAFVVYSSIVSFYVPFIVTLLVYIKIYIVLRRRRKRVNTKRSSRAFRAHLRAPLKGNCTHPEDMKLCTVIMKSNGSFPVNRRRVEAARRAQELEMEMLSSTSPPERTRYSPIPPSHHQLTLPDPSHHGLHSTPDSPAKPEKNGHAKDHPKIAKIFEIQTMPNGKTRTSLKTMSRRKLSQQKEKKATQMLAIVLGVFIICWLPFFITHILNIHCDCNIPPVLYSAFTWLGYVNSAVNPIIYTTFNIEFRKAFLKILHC
- test protocol: D2R β-arrestin-2 recruitment Tango assay
- Type: cell-based
- particulars: β-arrestin EC50 (nM), Tango assay, HTLA cells
compounds and their reported EC50
Number only, in nM; omit the unit.

{"test smiles": "Cc1nc2cc(OCCCCN3CCC(c4cccc(Cl)c4Cl)CC3)ccc2s1", "numeric readout": 49}

Field request: EC50 | item: Cc1nc2ccc(OCCCCN3CCC(c4cccc(Cl)c4Cl)CC3)cc2s1 460

Field request: EC50 | item: Cc1nc2cc(OCCCCN3CCN(c4cccc5[nH]c(=O)oc45)CC3)ccc2s1 0.36

Field request: EC50 | item: CNc1nc2cc(OCCCCN3CCN(c4cccc5c4OCCN5)CC3)ccc2s1 6.5

Field request: EC50 | item: COc1ccccc1N1CCN(CCCCOc2ccc3sc(C)nc3c2)CC1 8.5

###

- study system: D4R (Homo sapiens, UniProt P21917)
- Sequence (P21917 whole entry): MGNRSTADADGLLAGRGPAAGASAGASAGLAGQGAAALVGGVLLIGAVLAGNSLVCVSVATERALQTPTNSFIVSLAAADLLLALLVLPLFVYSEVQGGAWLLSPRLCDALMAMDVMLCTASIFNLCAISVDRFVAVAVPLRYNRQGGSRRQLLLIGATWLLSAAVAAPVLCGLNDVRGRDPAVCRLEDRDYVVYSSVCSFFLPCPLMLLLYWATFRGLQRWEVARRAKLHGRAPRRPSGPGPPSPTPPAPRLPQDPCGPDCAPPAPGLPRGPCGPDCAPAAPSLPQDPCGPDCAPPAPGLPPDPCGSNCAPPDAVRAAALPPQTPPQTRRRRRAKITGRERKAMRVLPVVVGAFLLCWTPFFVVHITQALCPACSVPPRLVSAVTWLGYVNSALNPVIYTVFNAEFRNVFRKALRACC
- test protocol: Radioligand binding, D4R
- particulars: read-out: Binding affinity Ki (nM), D4R; radioligand binding
attribute measured: Ki (nM)
Number only, in nM; omit the unit.

Field request: Ki | item: CNc1nc2cc(OCCCCN3CCN(c4cccc(Cl)c4Cl)CC3)ccc2s1 280

###

- study system: hD2L receptors (Homo sapiens)
- test protocol: D2R Gi/o-mediated cAMP inhibition assay
- Assay type: cell-based
- particulars: cAMP inhibition assay

{"test smiles": "CCc1nc2cc(OCCCCN3CCN(c4cccc5c4OCCO5)CC3)ccc2s1", "activity in Gi/o signaling (in words)": "inactive"}
{"test smiles": "CNc1nc2cc(OCCCCN3CCN(c4cccc5c4OCCO5)CC3)ccc2s1", "activity in Gi/o signaling (in words)": "inactive"}

###

- study system: D5R (Homo sapiens, UniProt P21918)
- Sequence (P21918 whole entry): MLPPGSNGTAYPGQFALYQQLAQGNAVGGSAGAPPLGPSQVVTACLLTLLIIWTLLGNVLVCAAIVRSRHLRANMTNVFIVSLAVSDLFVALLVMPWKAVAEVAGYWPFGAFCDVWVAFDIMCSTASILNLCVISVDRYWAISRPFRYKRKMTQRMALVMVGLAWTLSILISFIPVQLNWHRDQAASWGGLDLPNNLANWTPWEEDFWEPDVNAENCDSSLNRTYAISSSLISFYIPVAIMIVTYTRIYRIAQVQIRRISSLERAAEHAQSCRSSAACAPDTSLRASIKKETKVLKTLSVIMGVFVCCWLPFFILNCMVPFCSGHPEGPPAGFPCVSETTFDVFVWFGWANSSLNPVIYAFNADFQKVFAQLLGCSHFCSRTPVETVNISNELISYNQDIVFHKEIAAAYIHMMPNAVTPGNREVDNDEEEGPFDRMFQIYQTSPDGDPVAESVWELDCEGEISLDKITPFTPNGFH
- test protocol: Radioligand binding, D5R
- particulars: read-out: Binding affinity Ki (nM), D5R; radioligand binding
attribute measured: Ki (nM)
Number only, in nM; omit the unit.

Please provide the recorded Ki for CNc1nc2cc(OCCCCN3CCN(c4cccc(Cl)c4Cl)CC3)ccc2s1 [Compound 24] , tested on D5R (Homo sapiens, UniProt P21918). 1500
